Source listed as ChEMBL document CHEMBL3988442.

Recorded Percent Effect, one value per entry.
Tested on: Mycobacterium tuberculosis
Assay: Cornell M. t heat shock assay; further: in the data most compounds retested in dose-response had high values
Format: functional, organism-based
Parameters: dose or concentration left out as unconfirmed
The whole screen tested about 69,000 compounds, of which about 950 (1.4%) showed an effect of 50% or more. Shown is part of a subset that was picked to be rich in strong results.
Only the number, expressed in %, is required.

Query :: // query Percent Effect value for entry Cl.Cn1cc(CN2CCN(CC3(c4ccccc4)CC3)CC2)cn1
Result :: -7.6

Query :: // query Percent Effect value for entry Oc1cc(C2CCCN(Cc3cccs3)C2)nc(-c2ccccn2)n1 (stereo not drawn)
Result :: 99.87

Query :: // query Percent Effect value for entry O=C(Cc1cnccn1)N1C[C@H]2CC[C@@H]1CN(Cc1cscn1)C2
Result :: -4.902
